procedureSummary: PK of single agents vs fixed dose combinations (FDC), single oral dose in healthy volunteers
Type: in vivo, human
testParameters: human, plasma, oral, Arm 4: FDC01; read-out: tmax (median [range])
Description: SMV (100 mg), ODV (50 mg), and Compound (III) (800 mg) were administered as three different formulations or together as single doses in vivo to healthy volunteers. […] PK parameters, including Cmax, tmax, AUClast, and AUC∞ were measured for Compound (III), ODV, SMV, and metabolites Compound A-I and Compound A-3 for each Arm of the study. […]
Quick reference: Tmax of the listed items.
Write the value in h as a bare number.

Sample answers from the record:
C[C@]1(O)[C@H](n2ccc(=O)[nH]c2=O)O[C@](F)(CO)[C@H]1O ... 4
COc1ccc2c(O[C@@H]3C[C@H]4C(=O)N[C@]5(C(=O)NS(=O)(=O)C6CC6)C[C@H]5/C=C\CCCCN(C)C(=O)[C@@H]4C3)cc(-c3nc(C(C)C)cs3)nc2c1C [SMV, Simeprevir, reference compound] ... 6
C[C@H](NP(=O)(O)OC[C@@]1(F)O[C@@H](n2ccc(=O)[nH]c2=O)[C@](C)(O)[C@@H]1O)C(=O)O ... 4

Turning now to a further compound:
Using known records, supply Tmax for `COC(=O)N[C@H](C(=O)N1[C@H](c2nc3cc(-c4cc5ccc4CCc4ccc(c(-c6ccc7[nH]c([C@@H]8C[C@@H]9CCCC[C@@H]9N8C(=O)[C@@H](NC(=O)OC)C(C)C)nc7c6)c4)CC5)ccc3[nH]2)C[C@@H]2CCCC[C@@H]21)C(C)C`
6

###

procedureSummary: PK of single agents vs fixed dose combinations (FDC), single oral dose in healthy volunteers
Format: in vivo, human
testParameters: human, in vivo, Arm 4: FDC01, SMV 100 mg + ODV 50 mg (copovidone and poloxamers) + Compound (III) 800 mg; read-out: Cmax (mean ± SD)
observedProperty: Cmax (ng/mL)
Write the value in ng/mL as a bare number.

Using known records, supply Cmax for `CC(C)OC(=O)[C@H](C)N[P@](=O)(OC[C@@]1(F)O[C@@H](n2ccc(=O)[nH]c2=O)[C@](C)(O)[C@@H]1O)Oc1ccccc1`
745

###

procedureSummary: PK of single agents vs fixed dose combinations (FDC), single oral dose in healthy volunteers
Assay type: in vivo, human
testParameters: human, in vivo, Arm 3: FDC04, SMV 100 mg + ODV 50 mg (ODV/HPMC-AS L 1/3 w/w) + Compound (III) 800 mg; read-out: Cmax (mean ± SD)
observedProperty: Cmax (ng/mL)
Write the value in ng/mL as a bare number.

Using known records, supply Cmax for CC(C)OC(=O)[C@H](C)N[P@](=O)(OC[C@@]1(F)O[C@@H](n2ccc(=O)[nH]c2=O)[C@](C)(O)[C@@H]1O)Oc1ccccc1 [Compound (III)]
617

###

procedureSummary: PK of single agents vs fixed dose combinations (FDC), single oral dose in healthy volunteers
Format: in vivo, human
testParameters: human, in vivo, Arm 2: FDC02, SMV 100 mg + ODV 50 mg (ODV/HPMC-AS L 1/1 w/w) + Compound (III) 800 mg; read-out: Cmax (mean ± SD)
observedProperty: Cmax (µg/mL)
Write the value in µg/mL as a bare number.

Using known records, supply Cmax for `CC(C)OC(=O)[C@H](C)N[P@](=O)(OC[C@@]1(F)O[C@@H](n2ccc(=O)[nH]c2=O)[C@](C)(O)[C@@H]1O)Oc1ccccc1`
0.544

Hey, just so you know, these numbers are from patent US20170087174A1.
